Reference for the values: patent US20240368139A1

system: H3K9me2 in HCT116 cells; assay: HCT116 H3K9me2 in-cell western assay; format: cell-based; conditions: Homo sapiens, HCT-116, 72 h, HCT116 cells, 72 hours incubation; read-out: H3K9me2 ICW IC50
pIC50: −log10 of the molar value.
MEASURED QUANTITY: pIC50

Guide cases for pIC50, answers given:
>>> recorded_value("CCc1c(C)nc(Nc2cc3c(c(C4=CCN(C)CCC4)c2F)OCC3)nc1NC")
"> 7.00"
>>> recorded_value("CNc1cc(C)nc(Nc2cc3c(c(C4=CCNCCC4)c2Cl)OCCC3)n1")
"> 7.00"

Any idea what pIC50 was measured for "[2H]C([2H])([2H])Nc1cc(C)nc(Nc2cc3c(c(C4=CCNCCC4)c2)OCCO3)n1" ? > 7.00

// query: "CNc1cc(C)nc(Nc2cc3c(c(N4CCCN(C)CC4)c2)OCC3)n1" 5.70 to 6.30

// query: CNc1cc(C)nc(Nc2cc3c(c(C4=CCC(N)CC4)c2)OCCC3)n1 (centres unmarked) 6.30 to 7.00

// query: "CNc1cc(C)nc(Nc2cc3c(c(C4=CCNCCC4)c2C)OCCC3)n1" > 7.00

// query: "CNc1cc(C)nc(Nc2cc3c(c(OCCCN4CCCC4)c2)OCC3)n1" 6.30 to 7.00

// query: CNc1cc(C)nc(Nc2cc3c(c(C4=CCN(C)CCC4)c2F)OCC3C)n1 (centres unmarked) 6.30 to 7.00

###

pIC50: recorded values
Biological target: human EHMT1 982-1266 (Homo sapiens, UniProt Q9H9B1)
Sequence (Q9H9B1 982-1266): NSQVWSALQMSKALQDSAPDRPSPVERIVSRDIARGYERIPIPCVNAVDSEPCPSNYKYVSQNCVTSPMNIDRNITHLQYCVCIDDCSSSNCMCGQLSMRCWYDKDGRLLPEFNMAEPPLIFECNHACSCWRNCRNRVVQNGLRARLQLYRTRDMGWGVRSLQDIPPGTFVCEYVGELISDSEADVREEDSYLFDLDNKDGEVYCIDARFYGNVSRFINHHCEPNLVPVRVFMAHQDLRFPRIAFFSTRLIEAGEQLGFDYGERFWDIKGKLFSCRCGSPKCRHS
Assay: EHMT1 enzyme assay on histone peptide substrate (3H-SAM SPA)
Settings: EHMT1 IC50, recombinant human EHMT1 982-1266, histone peptide substrate
pIC50: −log10 of the molar value.

Guide cases for pIC50, answers given:
>>> recorded_value("CNc1cc(C)nc(Nc2cc3c(c(C4=CCC(N)CC4)c2F)OCC3)n1 (single isomer, unassigned) [Compound 435]")
"> 7.00"
>>> recorded_value("CCc1cc(NC)nc(Nc2cc3c(c(C4=CCN(C)CCC4)c2)OCC3)n1 [Compound 316]")
"> 7.00"
>>> recorded_value("CNc1cc(C)nc(Nc2ccc(OC)c(C3=CCN(C)CCC3)c2)n1 [Reference Compound A, reference compound]")
"> 7.00"

Alright, here's another compound for you.
What reported pIC50 corresponds to [2H]Cc1nc(Nc2cc3c(c(C4=CCN(C)CCC4)c2F)OCC3)nc(NC)c1F [Compound 221] on human EHMT1 982-1266 (Homo sapiens, UniProt Q9H9B1)? 6.30 to 7.00
